The measured values listed here are drawn from ChEMBL document CHEMBL5058577.

Measured Population Tubulin-Different-Phenotype (%), listed per entry for reference.
system: U2OS; assay: Multiplex assay against U2OS; type: toxicity, cell-based; conditions: human, 48 h, 10 µM, compound concentration 10 uM, replicate 2
Just the number in %, nothing appended.

Some compounds with known Population Tubulin-Different-Phenotype (%) results, for comparison:
[
  {
    "CHEMICAL STRUCTURE": "C[C@H](N)COC(=O)[C@@H](CCCCN)NC(=O)Cc1c(-c2ccc3ccccc3c2)[nH]c2c1ccc1ccccc12",
    "NUMBER": 6
  },
  {
    "CHEMICAL STRUCTURE": "O=C1[C@H](Cc2ccc(O)cc2)N2C(=O)CCN(C(=O)NCc3ccccc3)[C@H]2CN1Cc1cccc2ccccc12",
    "NUMBER": 18
  }
]

Okay, now this compound:
For U2OS, provide Population Tubulin-Different-Phenotype (%) of N#Cc1c(Oc2cccc(OS(=O)(=O)CCCC(F)(F)F)c2)cccc1C(F)(F)F please.
7
